Target: full-length beta-Catenin (Uniprot ID P35222) (Homo sapiens, UniProt P35222)
Construct: 10 nM full-length beta-Catenin (Uniprot ID P35222)
Sequence (P35222 1-781): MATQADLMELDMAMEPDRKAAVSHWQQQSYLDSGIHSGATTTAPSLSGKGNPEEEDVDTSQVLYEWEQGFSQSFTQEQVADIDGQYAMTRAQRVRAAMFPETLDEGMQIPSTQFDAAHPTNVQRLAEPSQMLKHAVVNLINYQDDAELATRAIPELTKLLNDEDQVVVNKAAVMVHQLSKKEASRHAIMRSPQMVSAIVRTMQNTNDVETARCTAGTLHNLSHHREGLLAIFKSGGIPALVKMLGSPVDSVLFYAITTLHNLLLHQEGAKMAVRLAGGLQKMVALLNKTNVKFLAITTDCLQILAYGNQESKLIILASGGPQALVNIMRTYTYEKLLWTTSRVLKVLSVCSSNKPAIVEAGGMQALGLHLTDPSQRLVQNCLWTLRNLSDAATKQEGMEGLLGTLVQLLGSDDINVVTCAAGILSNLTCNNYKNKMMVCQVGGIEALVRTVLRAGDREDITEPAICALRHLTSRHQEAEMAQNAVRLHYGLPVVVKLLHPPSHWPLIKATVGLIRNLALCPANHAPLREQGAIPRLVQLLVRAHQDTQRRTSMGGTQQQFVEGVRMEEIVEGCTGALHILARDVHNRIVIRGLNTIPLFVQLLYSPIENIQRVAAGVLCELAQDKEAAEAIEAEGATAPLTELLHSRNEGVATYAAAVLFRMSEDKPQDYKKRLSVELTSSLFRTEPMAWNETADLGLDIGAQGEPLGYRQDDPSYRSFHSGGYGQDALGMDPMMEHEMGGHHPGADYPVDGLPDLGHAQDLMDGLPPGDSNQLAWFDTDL
Assay method text: Fluorescence polarization IC50 (beta-catenin / 5FAM-TCF4 10-53 competition)
Type: binding
Condition context: read-out: beta-Catenin FP IC50
Entries and their measured pIC50 follow.
Would you please state pIC50, meaning minus log10 of the concentration in mol/L, as a bare number?

{"columns": ["Compound", "pIC50"],
 "data": [
  ["CC(=O)N1CCC[C@]12CC=CCCCC1(CCCC=CCOC(=O)N(C)CCC[C@@](C)(C(=O)N[C@@H](Cc3ccsc3)C(=O)N[C@@H](Cc3csc4ccccc34)C(=O)N[C@@H](Cc3c[nH]cn3)C(N)=O)NC(=O)[C@H](CC(N)=O)NC(=O)[C@H](Cc3ccccc3)NC(=O)[C@H](C)NC(=O)[C@H](C)NC(=O)[C@H](CC(=O)O)NC(=O)[C@H](CC(=O)O)NC1=O)NC(=O)[C@H](CC(C)(C)C)NC(=O)[C@H](CC(=O)O)NC2=O (some centres unmarked) [I-774]", 7.42],
  ["CC(=O)N1CCC[C@]12CC=CCCCC1(CCCC=CCCCOC(=O)N3CC[C@@](C(=O)N[C@@H](Cc4ccsc4)C(=O)N[C@@H](Cc4csc5ccccc45)C(=O)N[C@H](CC(N)=O)C(N)=O)(C3)NC(=O)[C@H](CC(N)=O)NC(=O)[C@H](Cc3ccccc3)NC(=O)[C@H](C)NC(=O)[C@H](C)NC(=O)[C@H](CC(=O)O)NC(=O)[C@H](CC(=O)O)NC1=O)NC(=O)[C@H](CC(C)(C)C)NC(=O)[C@H](CC(=O)O)NC2=O (some centres unmarked) [I-818]", 8.22],
  ["CC(=O)N1CCC[C@]12CC=CCCCC1(CCCC=CCCCOC(=O)N3CC[C@@](C(=O)N[C@@H](Cc4ccsc4)C(=O)N[C@@H](Cc4cn(C)c5ccccc45)C(=O)N[C@@H](Cc4c[nH]cn4)C(N)=O)(C3)NC(=O)[C@H](CC(N)=O)NC(=O)[C@H](Cc3ccccc3)NC(=O)[C@H](C)NC(=O)[C@H](C)NC(=O)[C@H](CC(=O)O)NC(=O)[C@H](CC(=O)O)NC1=O)NC(=O)[C@H](CC(C)(C)C)NC(=O)[C@H](CC(=O)O)NC2=O (some centres unmarked) [I-799]", 7.04],
  ["CC(=O)N1CCC[C@]12CC=CCCCC1(CCCC=CCCCOC(=O)N3CC[C@@](C(=O)N[C@@H](Cc4ccsc4)C(=O)N[C@@H](Cc4csc5ccccc45)C(=O)N[C@@H](Cc4c[nH]cn4)C(N)=O)(C3)NC(=O)[C@H](CC(N)=O)NC(=O)[C@H](Cc3ccccc3)NC(=O)[C@H](C)NC(=O)[C@H](C)NC(=O)[C@H](CN(CC(=O)O)CC(F)(F)F)NC(=O)[C@H](CC(=O)O)NC1=O)NC(=O)[C@H](CC(C)(C)C)NC(=O)[C@H](CC(=O)O)NC2=O (some centres unmarked) [I-770]", 8.30]
]}

Query block: Item CC(=O)N1CCC[C@]12CC=CCCCC1(CCCC=CCCCOC(=O)N3CC[C@@](C(=O)N[C@@H](Cc4ccccc4Cl)C(=O)N[C@@H](Cc4csc5ccccc45)C(=O)N[C@H](C(N)=O)[C@@H](C)O)(C3)NC(=O)[C@H](CC(C)C)NC(=O)[C@H](Cc3ccccc3)NC(=O)[C@H](C)NC(=O)[C@H](C)NC(=O)[C@H](CCC(=O)O)NC(=O)[C@H](CC(=O)O)NC1=O)NC(=O)[C@H](CC(C)(C)C)NC(=O)[C@H](CC(=O)O)NC2=O (some centres unmarked) [I-1070] : provide pIC50
Result block: 5.99
